As shown below, each of these molecules has a reported IC50 value.
- assayedTarget: ERα (Homo sapiens, UniProt P03372)
- Sequence (P03372 1-595): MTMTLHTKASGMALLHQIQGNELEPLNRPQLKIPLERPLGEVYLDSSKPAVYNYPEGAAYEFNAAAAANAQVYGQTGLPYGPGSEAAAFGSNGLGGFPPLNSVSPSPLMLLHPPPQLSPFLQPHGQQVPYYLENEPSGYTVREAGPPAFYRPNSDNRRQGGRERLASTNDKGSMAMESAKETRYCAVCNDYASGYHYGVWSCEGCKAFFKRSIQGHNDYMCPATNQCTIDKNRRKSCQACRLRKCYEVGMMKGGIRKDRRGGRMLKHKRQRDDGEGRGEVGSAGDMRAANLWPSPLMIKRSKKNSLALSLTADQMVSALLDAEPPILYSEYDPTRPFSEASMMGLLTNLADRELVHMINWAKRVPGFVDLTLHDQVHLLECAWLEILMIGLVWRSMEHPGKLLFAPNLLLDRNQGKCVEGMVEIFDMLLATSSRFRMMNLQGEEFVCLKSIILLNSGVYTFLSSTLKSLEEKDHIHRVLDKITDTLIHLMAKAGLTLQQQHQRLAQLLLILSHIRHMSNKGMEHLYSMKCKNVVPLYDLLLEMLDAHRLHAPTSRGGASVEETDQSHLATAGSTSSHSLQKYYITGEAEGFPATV
- procedureText: IL-6 assay: inhibition of IL-1β induced IL-6 expression in ERα infected HAECT-1 cells
- testParameters: Ad5-wt-ER infected HAECT-1 cells, IL-1β stimulated, IL-6 by ELISA
- Description: ERα infected HAECT-1 cells or control cells were thawed, diluted 42× in warm EBM-BSA, plated into 96-well plates at 0.1 ml/well and incubated for 4 h at 34° C. Test compounds were added to the cells as 2× stocks in EBM-BSA containing 2 ng/ml IL-1β (R&D Systems) and plates were returned to the incubator (34° C.). […] Creatine kinase was determined from the rate of increase in A340 following addition of 100 μl of CK assay reagent (Sigma, cat. No 47-10) to the remainder of the cell lysate. […]
Number only, in µM; omit the unit.

Below are worked cases with known answers.
CC[C@@H]1C(=O)N(C2CCCC2)c2ccc(F)cc2N1C(=O)c1ccc(O)cc1 [Example 17] ... 0.445
CC[C@@H]1C(=O)N(CC(C)C)c2ccc(F)cc2N1C(=O)c1ccc(O)cc1 [Example 14] ... 0.262
CC[C@H]1C(=O)N(C)c2cc(F)ccc2N1S(=O)(=O)c1ccc(O)cc1 [Example 29] ... 1.17

What does the record list as IC50 for CC[C@@H]1C(=O)N(CC)c2ccc(F)cc2N1C(=O)c1ccc(O)cc1O [Example 18] ?
0.02

What measured IC50 goes with CCCN1C(=O)[C@@H](CC)N(C(=O)c2ccc(O)cc2)c2cc(F)ccc21 [Example 9] ?
0.222

Could you share which IC50 value was measured for CC[C@@H]1C(=O)N(CC(F)(F)F)c2ccc(F)cc2N1C(=O)c1ccc(O)cc1 [Example 16] ?
0.204

Need IC50 of CC[C@@H]1C(=O)N(Cc2ccccc2)c2cc(F)ccc2N1C(=O)c1ccc(O)cc1 [Example 2] , thanks.
1.23

* * *

This listing pairs molecules with measured ER/IL-6 % E2.
- assayedTarget: ERα (Homo sapiens)
- Construct: expressed in transfected cells; host or cells: HAECT-1 cells infected with Ad5-wt-ER adenovirus
- Sequence (P03372 1-595): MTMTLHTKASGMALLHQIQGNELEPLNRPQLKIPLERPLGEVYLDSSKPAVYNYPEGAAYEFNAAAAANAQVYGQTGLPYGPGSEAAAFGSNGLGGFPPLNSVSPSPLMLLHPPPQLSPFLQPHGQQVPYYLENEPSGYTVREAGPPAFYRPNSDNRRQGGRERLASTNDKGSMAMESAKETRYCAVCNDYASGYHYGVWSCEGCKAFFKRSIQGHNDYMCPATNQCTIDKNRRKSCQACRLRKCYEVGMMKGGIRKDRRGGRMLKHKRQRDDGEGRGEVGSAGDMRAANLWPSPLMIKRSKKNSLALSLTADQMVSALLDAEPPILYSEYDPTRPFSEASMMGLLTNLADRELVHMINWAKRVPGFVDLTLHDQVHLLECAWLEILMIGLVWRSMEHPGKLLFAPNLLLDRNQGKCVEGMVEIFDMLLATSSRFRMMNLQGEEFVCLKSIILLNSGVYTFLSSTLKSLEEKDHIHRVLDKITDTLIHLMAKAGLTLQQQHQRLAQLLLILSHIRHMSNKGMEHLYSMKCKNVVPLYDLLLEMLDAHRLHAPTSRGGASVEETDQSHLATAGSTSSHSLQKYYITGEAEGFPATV
- procedureText: IL-6 assay: inhibition of IL-1β induced IL-6 expression in ERα infected HAECT-1 cells
- Type: cell-based
- testParameters: efficacy relative to the maximal inhibition observed with E2
Express your answer in % E2, writing the number without its unit.

CCN1C(=O)[C@H](C)N(S(=O)(=O)c2ccc(O)cc2)c2cc(F)ccc21 [Example 21] ... 56
CC[C@H]1C(=O)N(CC)c2ccc(F)cc2N1S(=O)(=O)c1ccc(O)cc1 [Example 26] ... 81
CC[C@@H]1C(=O)N(Cc2ccccc2)c2cc(F)ccc2N1C(=O)c1cccc(O)c1 [Example 5] ... 65
CCCCN1C(=O)[C@@H](CC)N(C(=O)c2ccc(O)cc2)c2cc(F)ccc21 [Example 12] ... 95
CC[C@@H]1C(=O)N(C)c2cc(F)ccc2N1C(=O)c1cccc(O)c1 [Example 4] ... 57

Next, consider the following molecule.
Reported ER/IL-6 % E2 for ERα (Homo sapiens), given CC[C@@H]1C(=O)N(CC)c2cc(F)ccc2N1C(=O)c1ccc(O)cc1 [Example 3] ?
104

* * *

- assayedTarget: ERα (Homo sapiens, UniProt P03372)
- Construct: expressed in transfected cells; host or cells: HAECT-1 cells infected with Ad5-wt-ER adenovirus
- Sequence (P03372 1-595): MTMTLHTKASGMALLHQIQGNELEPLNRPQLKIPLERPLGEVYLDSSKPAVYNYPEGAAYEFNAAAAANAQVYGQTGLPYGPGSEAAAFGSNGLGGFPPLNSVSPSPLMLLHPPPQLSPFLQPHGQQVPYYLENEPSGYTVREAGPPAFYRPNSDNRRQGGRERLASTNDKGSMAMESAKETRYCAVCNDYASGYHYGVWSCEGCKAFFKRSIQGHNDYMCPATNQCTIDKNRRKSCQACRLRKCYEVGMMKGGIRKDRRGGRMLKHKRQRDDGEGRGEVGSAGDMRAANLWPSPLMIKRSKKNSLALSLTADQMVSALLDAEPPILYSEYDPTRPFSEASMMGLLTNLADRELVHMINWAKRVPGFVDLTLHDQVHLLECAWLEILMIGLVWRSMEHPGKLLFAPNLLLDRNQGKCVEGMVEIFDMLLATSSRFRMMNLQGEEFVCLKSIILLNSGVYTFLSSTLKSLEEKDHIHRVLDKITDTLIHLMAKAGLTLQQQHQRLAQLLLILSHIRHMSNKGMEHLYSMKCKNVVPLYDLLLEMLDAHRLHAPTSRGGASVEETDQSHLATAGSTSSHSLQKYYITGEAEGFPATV
- procedureText: Creatine kinase (CK) assay in ERα infected HAECT-1 cells
- Type: cell-based
- testParameters: efficacy relative to the maximal stimulation observed with E2
ER/CK % E2: recorded values
Unit % E2 implied. Number only.

CC[C@H]1C(=O)N(C)c2cc(F)ccc2N1S(=O)(=O)c1ccc(O)cc1 ... 20
CC[C@@H]1C(=O)N(C)c2cc(F)ccc2N1C(=O)c1ccc(O)cc1 ... 16
CC[C@@H]1C(=O)N(CC)c2cc(F)ccc2N1C(=O)c1ccc(O)cc1 ... 29
CC[C@H]1C(=O)N(C)c2ccc(F)cc2N1S(=O)(=O)c1ccc(O)cc1 ... 35
CC[C@@H]1C(=O)N(Cc2ccccc2)c2cc(F)ccc2N1C(=O)c1ccc(O)cc1 ... 24

Now consider the entry below.
Request: ER/CK % E2, test system ERα (Homo sapiens, UniProt P03372), entry CC[C@@H]1C(=O)N(C)c2ccc(F)cc2N1C(=O)c1ccc(O)cc1O
44

* * *

Reported pEC50 values for a set of molecules
- assayedTarget: ERα (Homo sapiens, UniProt P03372)
- Construct: expressed in transfected cells; host or cells: HAECT-1 cells infected with Ad5-wt-ER adenovirus
- procedureText: Creatine kinase (CK) assay in ERα infected HAECT-1 cells
- Format: cell-based
- testParameters: Ad5-wt-ER infected HAECT-1 cells, creatine kinase in cell lysate
// pEC50 is dimensionless: -log10 of concentration (M)

Solved cases (5 shown):
CC[C@@H]1C(=O)N(C)c2cc(F)ccc2N1C(=O)c1cccc(O)c1 ... 6.90
CC[C@@H]1C(=O)N(C)c2cc(F)ccc2N1C(=O)c1ccc(O)cc1 ... 7.05
CC[C@@H]1C(=O)N(Cc2ccccc2)c2cc(F)ccc2N1C(=O)c1cccc(O)c1 ... 6.59
CC[C@@H]1C(=O)N(CC)c2ccc(F)cc2N1C(=O)c1ccc(O)cc1O ... 6.77
CC[C@H]1C(=O)N(CC)c2cc(F)ccc2N1S(=O)(=O)c1ccc(O)cc1 ... 7.37

Value lookup for pEC50; key = CC[C@H]1C(=O)N(C)c2cc(F)ccc2N1S(=O)(=O)c1ccc(O)cc1
6.46

Which pEC50 value belongs to CC[C@@H]1C(=O)N(CC)c2cc(F)ccc2N1C(=O)c1ccc(O)cc1 ?
6.99

Fill in: pEC50 of CC[C@@H]1C(=O)N(C)c2ccc(F)cc2N1C(=O)c1ccc(O)cc1O is ___
7.30

Hello, the source for this data is patent US7351709B2, in case you need it.
